// reported Test C disease control rating (wheat powdery mildew) for each item listed
Test system: Blumeria graminis f. sp. tritici
ASSAY_PROCEDURE: Test C: wheat powdery mildew, preventive spray on wheat seedlings
Type: in vivo
STUDY_CONDITIONS: 50 ppm, rated after 8 days, 100 = 100% disease control, 0 = no control
Reply with just the number (in %).

IN: Quick check: Test C disease control rating (wheat powdery mildew) of `Cc1cccc([N+](=O)[O-])c1Nc1c(-c2ccc(F)cc2Br)c(C)nn1C` ?
OUT: 96

IN: Quick check: Test C disease control rating (wheat powdery mildew) of `Cc1nn(C)c(Nc2c(F)cc(F)cc2[N+](=O)[O-])c1-c1c(F)cccc1Cl` ?
OUT: 99

IN: Quick check: Test C disease control rating (wheat powdery mildew) of `COc1cc(F)c(-c2c(C)nn(C)c2Nc2c(F)cc(F)cc2[N+](=O)[O-])c(F)c1` ?
OUT: 99

IN: Quick check: Test C disease control rating (wheat powdery mildew) of `Cc1nn(C)c(Nc2c(F)cc(Cl)cc2[N+](=O)[O-])c1-c1ccc(F)cc1F` ?
OUT: 100

IN: Quick check: Test C disease control rating (wheat powdery mildew) of `Cn1nc(C#N)c(-c2ccc(F)cc2Cl)c1Nc1c(F)cccc1[N+](=O)[O-]` ?
OUT: 94

IN: Quick check: Test C disease control rating (wheat powdery mildew) of `Cc1nn(C)c(Nc2ccc(Cl)cc2[N+](=O)[O-])c1-c1c(F)cccc1Cl` ?
OUT: 97

IN: Quick check: Test C disease control rating (wheat powdery mildew) of `Cc1nn(C)c(Nc2ccc(Cl)cc2[N+](=O)[O-])c1-c1ccc(F)cc1Cl` ?
OUT: 89

IN: Quick check: Test C disease control rating (wheat powdery mildew) of `Cc1nn(C)c(Nc2c(Cl)cccc2[N+](=O)[O-])c1-c1ccc(C#N)cc1Cl` ?
OUT: 81

IN: Quick check: Test C disease control rating (wheat powdery mildew) of `Cc1nn(C)c(Nc2c(Cl)cc(F)cc2[N+](=O)[O-])c1-c1ccc(Cl)cc1F` ?
OUT: 0
